The compounds listed here are annotated with their TGI.
test system: CCRF-CEM leukemia; test: NCI tumour cell line growth inhibition, 48 h

For orientation, consider the following solved cases.
compound	TGI
CC(C)(C)C1=C(Br)C(O)(C(C)(C)C)OP1(=O)c1ccccc1 (stereo not drawn)	> 100 µM
CC(=O)OC[C@H]1On2nnnc2[C@H](OC(C)=O)[C@@H](OC(C)=O)[C@@H]1OC(C)=O	> 100 µM

Switching to the query record.
Which measured TGI value corresponds to COc1ccccc1NC(=O)CC(=O)NN ?
> 100 µM

* * *

tested on: SF-295 CNS; test: NCI tumour cell line growth inhibition, 48 h
The molecules listed here are annotated with their TGI.
Give a bare numeral; the unit µM is implied.

For orientation, consider the following solved cases.
molecule	value-units	TGI
CC(=O)O[C@H]1CC2C(C3CCC(C(C)CCC(N)=O)[C@]31C)[C@H](OC(C)=O)C[C@@H]1CC3(CC[C@]21C)OOC1(CC[C@]2(C)C4C[C@H](OC(C)=O)[C@]5(C)C(C(C)CCC(N)=O)CCC5C4[C@H](OC(C)=O)C[C@@H]2C1)OO3 (some centres undefined)	µM	3.2
COc1cc(/C=C/c2ccc(O)c(OC)c2)cc(OC)c1	µM	54.7
CC1=C(C(=O)Nc2ccccc2)C(c2ccccc2Cl)C(C(=O)Nc2ccccc2)=C(C)N1	µM	66.9

Switching to the query record.
Which measured TGI value corresponds to CCCCCCCCCCCCC(O)c1ccco1 (centres undefined) ?
39.3

* * *

The compounds listed here are annotated with their TGI.
tested on: A498 renal; assay: NCI tumour cell line growth inhibition, 48 h

For orientation, consider the following solved cases.
compound	TGI
CC(=O)OCC1OC(n2c(C)c(C)c(C)c(C#N)c2=S)C(OC(C)=O)C(OC(C)=O)C1OC(C)=O (stereo not drawn)	> 100 µM
O=C(C(=O)n1ncc(Cl)c(Cl)c1=O)n1ncc(Cl)c(Cl)c1=O	> 100 µM

Which measured TGI value corresponds to CCC(C)CC(C)CC(C)/C=C(\C)C1=C(C)CC(C)(O)O1 (stereo not drawn) ?
> 100 µM

* * *

system: SW-620 colon; assay: NCI tumour cell line growth inhibition, 48 h
value-type: TGI

For orientation, consider the following solved cases.
compound	TGI
COc1cc(OC)cc(C2C3=C(COC3=O)Nc3cc(OC)ccc32)c1 (stereo not given)	> 70.8 µM
C=C1C(O)C2CC(C)(CO)C(=O)C2=C(CC(C)C)C12CC2 (stereo not given)	> 100 µM
CCCOC(=O)c1c(C)n(C)c2scc[n+]12	> 100 µM
CC(=O)C(C)(C)CCC(C)(C)C(C)=O	> 100 µM
CC1(C)CC[C@]2(C(=O)O)CC[C@]3(C)[C@H](C(=O)C=C4[C@@]5(C)C=C(C#N)C(=O)C(C)(C)[C@@H]5CC[C@]43C)[C@@H]2C1	2.42 µM
Cc1c2ccncc2c(C)c2c1[nH]c1ccc(OCCN(C)C)cc12	0.406 µM
CCCCCCSSC(=S)N(CC)CC	39.6 µM
Cc1c(C(=O)O)n(C)c(=O)n(C)c1=O	> 100 µM

Observed TGI on SW-620 colon for CCCCCCCCCCCCC(O)c1ccco1 (stereo not given) , please.
32 µM

* * *

The molecules listed here are annotated with their TGI.
test system: K-562 leukemia; experiment: NCI tumour cell line growth inhibition, 48 h

molecule	TGI
CCCCCC(O)C(O)CCC[C@H](O)[C@H]1CC[C@H]([C@H]2CC[C@H]([C@H](O)CCCCCCCCCCCCC3=C[C@H](C)OC3=O)O2)O1 (stereo partly specified)	6.4 µM
COC(=O)Nc1nc2ccc(NC(=O)c3ccc(I)cc3)cc2[nH]1	> 100 µM
CC(C)Oc1cccc(N2C(Nc3ccccc3)=Nc3ccncc3S2(=O)=O)c1	> 100 µM
CCCCCCSSC(=S)N(CC)CC	39.5 µM
COc1ccccc1NC(=O)C1=C(C)NC(C)=C(C(=O)Nc2ccccc2OC)C1/C=C/c1ccccc1	> 100 µM
CCCCC#Cc1c(I)n(C)c(=O)[nH]c1=O	3.46 µM

Which measured TGI value corresponds to O=C(C(=O)n1ncc(Cl)c(Cl)c1=O)n1ncc(Cl)c(Cl)c1=O ?
> 100 µM

How about this molecule: O=C(O)c1ccccc1C1c2ccccc2Oc2ccccc21
> 100 µM

How about this molecule: O=C(N=Nc1ccccc1Cl)NNc1ccccc1Cl
73.1 µM

How about this molecule: CN(C)CC1CC/C(=C\c2ccc3c(c2)OCO3)C1=O (stereo unspecified)
11.4 µM

* * *

system: 786-0 renal; assay: NCI tumour cell line growth inhibition, 48 h
value-type: TGI

O=C(O)CCNS(=O)(=O)c1ccc2ccccc2c1 > 100 µM
COC(=O)Cn1cnc2c(Cl)nc(Nc3ccccc3)nc21 > 100 µM

Switching to the query record.
Observed TGI on 786-0 renal for [N-]=[N+]=NCCCn1c2c(c3ccc([N+](=O)[O-])cc3c1=O)C(=O)c1cc(Br)ccc1-2 , please.
> 100 µM

* * *

The molecules listed here are annotated with their TGI.
system: EKVX NSCLC; assay: NCI tumour cell line growth inhibition, 48 h

For orientation, consider the following solved cases.
molecule	TGI
O=C(Nc1nn[nH]n1)c1nc(-c2ccccc2)cc(=O)[nH]1	> 100 µM
COc1ccc2oc3c(OC)c(OC)c(OC)cc3c(=O)c2c1	> 100 µM
COC(=O)Cn1cnc2c(Cl)nc(Nc3ccccc3)nc21	88 µM
COc1ccc(C2=Nc3ccccc3SC(C)C2)cc1OC (centres undefined)	56.5 µM
COC1=CC(C2c3cc4c(cc3[C@@H](Nc3ccc(F)cc3)C3COC(=O)[C@H]23)OCO4)=CC(=O)C1=O (some centres undefined)	> 59.1 µM
COc1nc(C#CC2CCCCC2)nc(OC)n1	32.6 µM

Which measured TGI value corresponds to CC(C)N(Cc1ccc(CN(C(=O)CCl)C(C)C)cc1)C(=O)CCl ?
5.63 µM

How about this molecule: Cc1nc(Nc2ccccc2Cl)sc1C(=O)CC(=O)C(N)=O
> 100 µM

How about this molecule: Cc1c2cccc-2ccc2c3ccccc3n(C(=O)c3ccc(Cl)cc3)c12
> 100 µM

How about this molecule: N/C(=N\N=C\c1ncccc1O)NO
> 100 µM

How about this molecule: O=C(Nc1ccccc1I(=O)=O)C1CCCCC1
> 100 µM

How about this molecule: O=C1CSC(c2ccccc2Cl)N1c1nnc(Cn2cnnc2)o1 (centres undefined)
> 100 µM

How about this molecule: CCCc1cc(=O)n2c(C(=O)Nc3ccc(F)cc3)c(C(=O)Nc3ccc(F)cc3)sc2n1
> 160 µM

* * *

The compounds listed here are annotated with their TGI.
tested on: HCT-116 colon; assay: NCI tumour cell line growth inhibition, 48 h

For orientation, consider the following solved cases.
compound	target-or-test-system	TGI
C1CCCCc2nc3c(nc2CCC1)c1nc2c(nc1c1nc4c(nc31)CCCCCCCC4)CCCCCCCC2	HCT-116 colon	> 100 µM
Cc1cccc(C(=O)O)c1C(=O)c1cccc2ccccc12	HCT-116 colon	> 100 µM
CC1=C(C(=O)Nc2ccccc2)C(c2ccccc2Cl)C(C(=O)Nc2ccccc2)=C(C)N1	HCT-116 colon	47.6 µM
Cc1ccc([N+](=O)[O-])c2c(NCCNC(=O)c3cc(C(=O)NCCNc4ccnc5c(C)ccc([N+](=O)[O-])c45)n(C)n3)ccnc12	HCT-116 colon	> 100 µM
Nc1nc2c(C(=O)NCc3cccs3)nnn2c2cccc(Cl)c12	HCT-116 colon	> 100 µM

Which measured TGI value corresponds to COc1ccc(/C=C/c2c(C(=O)/C=C/c3ccc(C(F)(F)F)cc3)c(C)nc3ccccc23)cc1 ?
1.97 µM

How about this compound: CC(C)CCOC(=O)NC(Nc1ccc(F)cc1)(C(F)(F)F)C(F)(F)F
> 100 µM

How about this compound: COC(NC(=O)Nc1ccccc1C)(C(F)(F)F)C(F)(F)F
> 100 µM

How about this compound: Cc1nc(-c2cc3ccccc3oc2=O)cs1
> 100 µM

How about this compound: CC(C)=CCC[C@@H](C)C1=C(O)C(Nc2ccccc2I)=C(C)C(=O)C1=O
34.8 µM

How about this compound: CCOC(=O)C1=C(O)c2ccc(C)cc2C(=O)C1=O
> 100 µM

How about this compound: [N-]=[N+]=NCC(O)Cn1cnc2c(NC(=O)c3ccccc3)ncnc21 (stereo unspecified)
> 100 µM

How about this compound: Cc1c(C#N)cccc1[C@@H](C)Nc1nnc(C)c2cnc(N3CCOCC3)cc12
> 100 µM

How about this compound: Nc1c(S(=O)(=O)O)cc(S(=O)(=O)O)c2ccc(N=Nc3ccc(/C=C/c4ccc(N=Nc5ccc6c(S(=O)(=O)O)cc(S(=O)(=O)O)c(N)c6c5O)cc4S(=O)(=O)O)c(S(=O)(=O)O)c3)c(O)c12
> 100 µM

How about this compound: CN1Cc2ccccc2/C=C\c2ccccc21
> 100 µM

How about this compound: COc1ccc(-c2cncn2-c2cc(OC)c(OC)c(OC)c2)cc1
4.78 µM

The reported numbers originate from PubChem BioAssay (NCI).
